- Tested on: TK-10 renal
- EXPERIMENT_SUMMARY: NCI-60 one-dose screen, 48 h (100 = growth as untreated, 0 = no growth, -100 = all killed)
- TEST_CONDITIONS: 10 µM
The panel holds about 83,000 compounds, 20% with a hit somewhere; the sample as a whole holds those more often.
RESULT_TYPE: growth (%)
Give just the numeric value; % need not be written.

(Q) Which value of growth has been reported for `CCOC(=O)N1C/C(=C/c2ccc(F)cc2)C(=O)/C(=C/c2ccc(F)cc2)C1` in the records?
(A) 2.65

(Q) Requested read-out: growth. Entry: CC1(C)OC2=C(CC1Br)C(=O)C(=O)c1ccccc12 (stereo unspecified)
(A) -22.6

(Q) What does the record list as growth for `Cc1cc(=O)n2nnc3c4ccccc4ccc3n12` ?
(A) 74.1

(Q) Please look up its growth: CCCCN(CCCC)CCCCCCCCC(O)c1cc2ccccc2c2ccccc12 (stereo unspecified)
(A) 79

(Q) What value of growth has been reported for the following molecule? `COc1ccc(-c2cc(-c3cccc(NS(C)(=O)=O)c3)nc(N)c2C#N)cc1`
(A) 67.5

(Q) For the molecule `c1ccc2c(c1)oc1c3cccnc3ccc21` , what growth is on record?
(A) 118
